Data provenance: PubChem BioAssay (NCI)

- Tested on: HCT-116 colon
- Assay Protocol: NCI tumour cell line growth inhibition, 48 h
Property Name: TGI

Asked: Report TGI under test system HCT-116 colon for O=C(CCN1CCOCC1)Nc1ccc(Cn2nnc3c2C(=O)c2nnn(Cc4ccc(NC(=O)CCN5CCOCC5)cc4)c2C3=O)cc1 .
Given back: > 100 µM

Asked: Report TGI under test system HCT-116 colon for O=C1Nc2ccc(Cl)cc2/C1=N/c1nc(-c2ccc(Cl)cc2)cs1 .
Given back: 2.71 µM

Asked: Report TGI under test system HCT-116 colon for COC(=O)/C(=N\N)C(C(=O)C(=O)Nc1cc(Cl)ccc1Cl)c1nc2ccc([N+](=O)[O-])cc2[nH]c1=O (stereo not given) .
Given back: > 100 µM

Asked: Report TGI under test system HCT-116 colon for O=[N+]([O-])c1ccc(/C=C(/c2ccc([N+](=O)[O-])o2)S(=O)(=O)c2ccccc2)cc1 .
Given back: > 100 µM

Asked: Report TGI under test system HCT-116 colon for CCCN1C(=O)CN(S(=O)(=O)c2ccc(Cl)cc2)C1=O .
Given back: > 100 µM

----------
- Test system: MALME-3M melanoma
- Assay Protocol: NCI tumour cell line growth inhibition, 48 h
Property Name: log10 TGI (log10 of the value in µM)
Transform log10 | Measure TGI | Unit µM

Known results for compounds:
INSERT INTO assay_data (compound, measured_value) VALUES
  ('CCN(C(=O)N[C@@H](CC(C)C)C(=O)NCC(=O)OC)c1ccccc1', 1.71),
  ('CN(C)CCCC1(c2ccc(F)cc2)OCc2cc(-c3csc4ccccc34)ccc21 (centres undefined)', 0.47),
  ('CC1(c2ccc(Cl)cc2)C=C(c2ccc(Cl)cc2)C(C#N)=C(C(C#N)C#N)N1 (centres undefined)', 1.46),
  ('CC[C@@H]1CC[C@@H]2[C@H](CC[C@]3(C)[C@@H](O[N+](=O)[O-])CC[C@@H]23)[C@H]1C(C)=O', 1.81),
  ('Cc1cccc(Oc2ccc(Nc3ncnc4ccc(NC(=O)CN(C)C)cc34)cc2Cl)c1', 0.53),
  ('COc1cc2c(Oc3ccc(-c4cnc(Nc5ccc(F)cc5)n(C)c4=O)cc3F)ccnc2cc1OCCCN1CCOCC1', 0.15);

Asked: Please supply the value of reported log10 TGI for the item O=C(O)CSc1cc(NS(=O)(=O)c2ccc(Br)cc2)c2ccccc2c1O
Given back: 1.32

Asked: Please supply the value of reported log10 TGI for the item C=C(C)c1nc(Oc2ccccc2)nc(Oc2ccccc2)n1
Given back: 1.44

----------
- System: SF-539 CNS
- Assay Protocol: NCI tumour cell line growth inhibition, 48 h
Property Name: TGI

Known results for compounds:
INSERT INTO measurements (compound, property_name, measured_value) VALUES
  ('N#C[Se]CCN1C(=O)c2ccccc2C1=O', 'TGI', '6.85 µM'),
  ('CC(=O)O[C@H]([C@H](OC(C)=O)[C@H](C)OC(C)=O)[C@@H](/C=C/[C@H]1CC=CC(=O)O1)OC(C)=O', 'TGI', '> 100 µM'),
  ('OCc1ccc(N2CCc3ccc(F)cc3C2)cc1Cl', 'TGI', '31 µM'),
  ('O=C1CSC(c2cc3cc(Br)ccc3nc2Cl)N1c1ccc(Cl)cc1 (stereo not drawn)', 'TGI', '37.8 µM');

Asked: Please supply the value of reported TGI for the item Cc1ccccc1NC(=O)CC(=O)NNCC(=O)Nc1nnc(-c2ccccc2)s1
Given back: > 100 µM

Asked: Please supply the value of reported TGI for the item CC[C@]12C=CCN3CC[C@@]4(c5ccc(OC)cc5N(C)[C@H]4[C@@](O)(C(=O)OC)[C@@H]1OC(=O)CCCN1CCN(CCCC(=O)O[C@@H]4[C@]5(CC)C=CCN6CC[C@@]7(c8ccc(OC)cc8N(C)[C@H]7[C@@]4(O)C(=O)OC)[C@@H]65)CC1)[C@@H]32
Given back: 2.7 µM

Asked: Please supply the value of reported TGI for the item COC(=O)C(C)NP(=O)(OCc1cccc(Cn2cnc3c(N)ncnc32)c1)Oc1ccccc1 (stereo not drawn)
Given back: > 100 µM

Asked: Please supply the value of reported TGI for the item O=C(/C=C/c1ccccc1)CCN1CCCCC1
Given back: 37.7 µM

Asked: Please supply the value of reported TGI for the item Cc1cc2nnn(C3CCCCO3)c2cc1C (stereo not drawn)
Given back: > 100 µM

Asked: Please supply the value of reported TGI for the item NS(=O)(=O)c1cc2c(cc1Cl)NCNS2(=O)=O
Given back: > 100 µM
